Molecular target: HIV-1 protease (Human immunodeficiency virus type 1 group M subtype B)
Test: biochemical
Conditions: read-out: HIV-1 Protease % Inhib, dose 10.000 uM
inhibition at 10 µM below 60% gives Not fulfilled; inhibition at 10 µM at or above it gives Fulfilled.

Solved cases below.
COMPOUND	QUALITATIVE_LABEL
O=c1oc2c(c(O)c1C(c1ccccc1)C1CC1)CCCCCCCC2 (centres unmarked) [Example 116]	Fulfilled
CCC(c1cccc(OC)c1)c1c(O)c2ccccc2oc1=O (centres unmarked) [Example 102]	Not fulfilled
Cn1cnc(S(=O)(=O)Nc2cccc([C@@H](c3c(O)c4c(oc3=O)CCCCCC4)C3CC3)c2)c1 [Example 297]	Fulfilled
O=c1oc2c(c(O)c1C(c1cccc(NS(=O)(=O)c3ccccc3F)c1)C1CC1)CCCCCC2 (centres unmarked) [Example 281]	Fulfilled
O=c1oc2c(c(O)c1C(c1ccccc1)C1CC1)CCCCCC2CC1CCCCO1 (centres unmarked) [Example 130]	Fulfilled
C=CC(c1ccccc1)c1c(O)c2ccccc2oc1=O (centres unmarked) [Example 74]	Not fulfilled

Ask: Threshold query (inhibition at 10 µM >= 60%) on CC(c1cccc(C(=O)NCC(=O)NCc2nc3ccccc3[nH]2)c1)c1c(O)c2ccccc2oc1=O (centres unmarked) [Example 33]
Result: Not fulfilled

Ask: Threshold query (inhibition at 10 µM >= 60%) on CC(=O)Oc1ccc(C(C)(C)c2c(O)c3ccccc3oc2=O)cc1 [Example 150]
Result: Fulfilled
